- tgt: Single-stranded DNA cytosine deaminase (Homo sapiens)
- experiment-summary: Primary qHTS assay for inhibitors of Activation Induced Cytidine Deaminase (AID): AID signal; also: nearly all actives have a fitted effect of over 25% in size
- assay-setup: AID deamination FRET fluorescence, UDG-coupled, 4 h; series mostly up to 115 µM
The whole screen tested about 91,000 compounds, of which about 290 (0.32%) were called active. Roughly 7% stayed inconclusive and do not appear here. Calls follow the shape of the dose curve; as a rule, active = well fitted inhibition curve with a large enough effect; inconclusive = small, poorly fitted or top-dose-only effect; inactive = no such curve, though single readings can be large or run the other way. This is one part of a sample in which actives are shown more often than they occur.
Just give me one of these, please: true for active, false for inactive

Q. // outcome(item) with item = Cc1cccc2c(=O)c(-c3ccccc3)c(NC(=O)c3ccc([N+](=O)[O-])cc3)oc12
A. false

Q. Try COC(=O)Cc1c(C)c2ccc(OCc3ccc(F)cc3)cc2oc1=O next.
A. false

Q. Now give it for CC(=O)N1CCC(C(=O)Nc2ccc(Br)cc2)CC1 too.
A. false

Q. Further, for O=C(CCCOC(=O)c1cc(Cl)ccc1[N+](=O)[O-])c1ccc(Br)cc1 ?
A. false

Q. Another molecule to check: O=C(Nc1ccc(C(F)(F)C(F)(F)C(F)(F)F)oc1=O)c1ccccc1
A. false

Q. Also COc1ccc(-c2cc(COC(=O)Cc3cccc(F)c3)on2)cc1 , if possible.
A. false

Q. What would you report for CCCCc1c(C)nc2c(Cl)cccc2c1Cl ?
A. false

Q. Another molecule to check: CCCNC(=O)C1CCC(Cn2c(=O)c3sccc3n(Cc3ccccc3F)c2=O)CC1 (stereo unspecified)
A. false

Q. And the next one, Cc1nn(CCC(=O)Nc2c(Cl)cccc2Cl)c(=O)c(C#N)c1C ?
A. false

Q. Cool, now O=C(O)Cn1cccc(C(F)(F)F)c1=O
A. false

Q. Try this molecule too: O=C(COC(=O)CC12CC3CC(CC(C3)C1)C2)Nc1ccc([N+](=O)[O-])cc1C(F)(F)F
A. false

Q. Moving on to O=C(NCc1ccc(F)cc1)NC1CC1
A. false

Q. Item: COc1ccc(NC(=O)Cc2ccc3c(c2)OCCO3)cn1
A. false

Q. Request: c1ccc2cc(OCCSc3ccc4ccccc4n3)ccc2c1
A. false

Q. What about this molecule? Cn1c(=O)n(Cc2ccccc2)c(=O)c2c1nc(NCc1ccccc1)n2Cc1ccccc1
A. false

Q. Cool, now CC(C)NC(=O)C1CCC(Cn2c(=O)c3sccc3n(Cc3ccc(F)cc3)c2=O)CC1 (stereo unspecified)
A. false

Q. Quick one: O=C(CSc1nc2c(c(=O)n1CCc1ccccc1)SCC2)Nc1cccc2ccccc12
A. false

Q. Entry to check: COc1cc(C(=O)NC2CCOC2=O)cc(OC)c1OC (stereo unspecified)
A. false

Q. Now this one: COc1cc(C2CC(=O)Nc3nc(-c4ccccc4)[nH]c(=O)c32)ccc1OCc1ccc(F)cc1 (stereo unspecified)
A. false

Q. Also check CCOc1ccc(NC(=O)Cn2cc(C(=O)c3ccc(C)cc3)c(=O)c3cc4c(cc32)OCCO4)cc1
A. false

Q. Now consider Cc1ccc2[nH]c(=S)nc(-c3ccccc3)c2c1 and answer again.
A. false

Q. Do the same for COc1ccc(Cn2cc(C(=O)c3ccc(C)cc3)c(=O)c3cc(OC)c(OC)cc32)cc1 please
A. true

Q. Input CCNCc1ccccc1C(F)(F)F
A. false

Q. Further, for O=C(c1cnn(-c2ccc(F)cc2)c1-n1cccc1)N1CCN(c2ccc(F)cc2)CC1 ?
A. false

Q. Again, but for Cc1cc(C(C)(C)C)cc(C)c1CS(=O)Cc1ccc(F)cc1 (stereo unspecified)
A. false

Q. Subsequent entry: COc1cc(C2SCCS2)ccc1OC(=O)c1ccc2c(c1)NC(=O)CS2
A. false
